Entry source: patent US20260056186A1

Emax for assorted binders
Target system: T1, APRIL (Acro Biosystems, Cat: APL-H52D1) (UniProt O75888 115-250, limits assumed)
T1 construct: also called ARPIL
T1 sequence (looked up): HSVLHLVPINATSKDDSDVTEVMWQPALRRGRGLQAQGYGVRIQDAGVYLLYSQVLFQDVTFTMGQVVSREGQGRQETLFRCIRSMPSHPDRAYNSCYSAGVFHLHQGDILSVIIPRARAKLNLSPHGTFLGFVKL
Measurement notes: ELISA, APRIL coated at 1 ug/mL, anti-human Fc-HRP, OD450

>  <Binder>
B575704 (Fc fusion, TACI-BCMA fusion protein; also called BCMA-ECD-TACI-T2-Fc) MLQMAGQCSQNEYFDSLLHACIPCQLRCSSNTPPLTCQRYCNASVTNSVKGTNASRVDQEERFPQGLWTGVAMRSCPEEQYWDPLLGTCMSCKTICNHQSQRTCAAFCRSLSCRKEQGKFYDHLLRDCISCASICGQHPKQCAYFCENKLRSPVNLPPELDKTHTCPPCPAPEAEGAPSVFLFPPKPKDTLMISRTPEVTCVVVDVSHEDPEVKFNWYVDGVEVHNAKTKPREEQYNSTYRVVSVLTVLHQDWLNGKEYKCKVSNKALPSSIEKTISKAKGQPREPQVYTLPPSRDELTKNQVSLTCLVKGFYPSDIAVEWESNGQPENNYKTTPPVLDSDGSFFLYSKLTVDKSRWQQGNVFSCSVMHEALHNHYTQKSLSLSPGK

>  <Emax>
2.68

$$$$
>  <Binder>
B575701 (Fc fusion, TACI-BCMA fusion protein; also called TACI-d2-BCMA-ECD-Fc) LSCRKEQGKFYDHLLRDCISCASICGQHPKQCAYFCENKLRSPGMLQMAGQCSQNEYFDSLLHACIPCQLRCSSNTPPLTCQRYCNASVTNSVKGTNADKTHTCPPCPAPEAEGAPSVFLFPPKPKDTLMISRTPEVTCVVVDVSHEDPEVKFNWYVDGVEVHNAKTKPREEQYNSTYRVVSVLTVLHQDWLNGKEYKCKVSNKALPSSIEKTISKAKGQPREPQVYTLPPSRDELTKNQVSLTCLVKGFYPSDIAVEWESNGQPENNYKTTPPVLDSDGSFFLYSKLTVDKSRWQQGNVFSCSVMHEALHNHYTQKSLSLSPGK

>  <Emax>
2.69

$$$$
